- Species: Rattus norvegicus
- Assay info: Open TG-GATES - Regimen: Single
- Assay type: toxicity, organism-based, Sprague-Dawley
- Parameters: regimen Single, gender Male, age 6 weeks
- Stated conditions: in vivo, po, 10 mg/kg, 6 h, tissue Plasma, route gavage, dose level Low
Measured metric: TP (g/dL)
State the answer as a number, implicitly in g/dL.

Below are worked cases with known answers.
>>> print(df.to_string())
                                   compound  measured_metric  unit_abbrev  observed_measurement
0  CN(C)CCCN1c2ccccc2CCc2ccc(Cl)cc21 [CLOMIPRAMINE]               TP         g/dL                   5.3
1  CN(C)CCCN1c2ccccc2CCc2ccccc21 [IMIPRAMINE]               TP         g/dL                   5.3
2  CC1=C(/C=C/C(C)=C/C=C/C(C)=C/CO)C(C)(C)CCC1 [RETINOL]               TP         g/dL                   5.4
3                CN(C)CCN(Cc1cccs1)c1ccccn1               TP         g/dL                   5.3

Now for the compound whose TP we want.
For the compound shown here, CC(C)OC(=O)C(C)(C)Oc1ccc(C(=O)c2ccc(Cl)cc2)cc1 [FENOFIBRATE] , give the reported TP.
5.4
